SYSTEM_TESTED: C-C chemokine receptor type 9 (Homo sapiens)
Sequence (P51686 whole entry): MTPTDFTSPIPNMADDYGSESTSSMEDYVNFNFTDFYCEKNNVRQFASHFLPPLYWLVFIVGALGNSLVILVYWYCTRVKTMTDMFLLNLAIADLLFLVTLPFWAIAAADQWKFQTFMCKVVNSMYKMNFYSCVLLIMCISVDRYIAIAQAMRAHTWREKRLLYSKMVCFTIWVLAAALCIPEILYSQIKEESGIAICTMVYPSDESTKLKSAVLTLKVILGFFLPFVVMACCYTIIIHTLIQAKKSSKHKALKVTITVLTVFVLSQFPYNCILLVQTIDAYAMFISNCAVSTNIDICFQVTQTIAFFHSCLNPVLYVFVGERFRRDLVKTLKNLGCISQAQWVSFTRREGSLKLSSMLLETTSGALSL
PROTOCOL: Antagonist activity against CCR9 in human MOLT4 cells assessed as inhibition of human recombinant TECK-induced calcium response pre-treated before TECK stimulation by Flou-4-AM dye based FLIPR assay
pIC50: −log10 of the molar value.
ASSAY_ENDPOINT: pIC50

- CC(C)(C)c1ccc(S(=O)(=O)Nc2ccc(Cl)cc2C(=O)c2ccnc(S(C)(=O)=O)c2)cc1: > 6.00
- COc1ccc(S(=O)(=O)Nc2ccc(Cl)cc2C(=O)N2CCCCC2)cc1: < 6.00
- CC1(c2ccc(S(=O)(=O)Nc3ccc(Cl)cc3C(=O)c3ccncc3)cc2)CCOCC1: > 6.00
- O=C(c1ccc[n+]([O-])c1)c1cc(Cl)ccc1NS(=O)(=O)c1ccc(N2CCOCC2)cc1: > 6.00
- CC1(c2ccc(S(=O)(=O)Nc3ccc(Cl)cc3C(=O)c3cc[n+]([O-])cc3)cc2)CCOCC1: > 6.00

Request the reported pIC50 associated with `Cc1cc(C(=O)c2cc(Cl)ccc2NS(=O)(=O)c2ccc(C3(C)CCOCC3)cc2)ccn1`
> 6.00

Now the same for `Cc1ccncc1C(=O)c1cc(Cl)ccc1NS(=O)(=O)c1ccc(-c2cnco2)cc1`
> 6.00

Now the same for `CC(C)(C)OC(=O)n1c(-c2ccc(S(=O)(=O)Nc3ccc(Cl)cc3C(=O)c3ccncc3)cc2)cc2ccccc21`
< 6.00

Now the same for `CC(C)(c1ccc(S(=O)(=O)Nc2ccc(Cl)cc2C(=O)c2ccnc(Cl)c2)cc1)c1ncco1`
> 6.00

Now the same for `CS(=O)(=O)c1ccc(S(=O)(=O)Nc2ccc(Cl)cc2C(=O)c2ccc(Cl)[n+]([O-])c2)cc1`
> 6.00

Now the same for `O=C(c1ccncn1)c1cc(Cl)ccc1NS(=O)(=O)c1ccc(-c2cnco2)cc1`
< 6.00

Now the same for `Cc1ccc(C(=O)c2cc(Cl)ccc2NS(=O)(=O)c2ccc(S(C)(=O)=O)cc2)c[n+]1[O-]`
> 6.00

Now the same for `CC(C)(c1ccc(S(=O)(=O)Nc2ccc(Cl)cc2C(=O)c2ccncc2)cc1)N1CCCCC1=O`
> 6.00

Now the same for `CC(C)(C)c1ccc(S(=O)(=O)Nc2cc(F)c(F)cc2C(=O)c2ccncc2)cc1`
> 6.00

Now the same for `Cc1nnc(-c2cccc(S(=O)(=O)Nc3ccc(Cl)cc3C(=O)c3ccncc3)c2)o1`
< 6.00

Now the same for `CCOC(=O)CNC(=O)c1cc(Cl)ccc1NS(=O)(=O)c1ccc(OC)cc1`
< 6.00

Now the same for COc1ccc(S(=O)(=O)Nc2ccc(Cl)cc2C(=O)N2CCCC(Cc3ccccc3)C2)cc1 (stereo not drawn)
< 6.00

Now the same for `C[C@@H]1CN(c2ccc(S(=O)(=O)Nc3ccc(Cl)cc3C(=O)c3cc[n+]([O-])cc3)cc2F)C[C@H](C)O1`
> 6.00
